- Protocol details: yeast display, Sf9 membrane polyspecificity reagent, FACS + sequencing; frameworks hold sequencing errors
Measured parameter: polyreactivity (PSR sort gate)

Examples with answers:
>>> measured_value("QVQLVESRGGLVQAGGSLRLSFAASGSIFTPYTMGWDRPAPGKERELVAAITGSAGSTYYADSVKGRFTISRDNAKNTVYLQMNSLKPEDTAVYYCAAAVWGVYQWYYYWGQGTQVTVSS")
"high polyreactivity"
>>> measured_value("QVQLVESGGGLVQAGGSLRLSCAASGFTFTWYVMGWYRQAPGKERELVAAISRSGGSTYYADSVKGRFTISRDNAKNTVYLQMNSLKPEDTAVYYCAAVGTSRYDYWGQGTQGTVSS")
"high polyreactivity"
>>> measured_value("QVQLVESGGGLVQAGGSLRLSCAASGRTLPKYVMGCYRQAPGKERELVDAISSSGDSTYYADSVKGRFTISRDNAKNTVYLQMNSLKPEDTAVYYCAKYDRNTYGYWGQGTQVTVSS")
"low polyreactivity"
>>> measured_value("QVQLVESGAGLVQAGGSLRLSCAASGSIFQPYAMGWYRQAPGKERELVAAISSSGGSTTYADSVKGRFTISRDNAKNTVYLQMNSLKPEDTADYYCAADSADDMGYWGQGTQVTVSS")
"low polyreactivity"

Next, consider the following sequence.
Entry `QVQLVESGGGLVQAGGSLRLSCAASGRISFYYAMGWYRQAPGKERELVATISSSGGSTHYADSVKGRFTISRDNAKNTVYLQMNSLKPEDTAVYYCARDDSDRIWLEQSGYWGQGTQVTVSS` : reported polyreactivity (PSR sort gate) = ?
low polyreactivity

====

- Protocol details: yeast display, Sf9 membrane polyspecificity reagent, FACS + sequencing; frameworks hold sequencing errors
Measured parameter: polyreactivity (PSR sort gate)

// solved cases for polyreactivity (PSR sort gate) follow
>>> measured_value("QVQLVESGGGLVQAGGSLRLSCAASGNIFHDNAMGWYRQAPGKERELVAAISDSGGSTYYADSVKGRFTISRDTAKNTVYLQMNSLKPEDTAVYYCDSGRTYYAPYQWWYDYWGQGTQVTVSS")
"high polyreactivity"
>>> measured_value("QVQLVESGGGLDQAGGSLPLSCAASGRILQGYAMGWYRQAPGKEREMVASIRTGGTTNYADSVKGRFTISRDNAKNTVYLQMNSLKPEDTAVYYCNRGYDSYYGRYYYWGQGTQVTVSS")
"high polyreactivity"
>>> measured_value("QVQLVESGGGLVQAGGSLRLSCAASGITFYFYAMGWSRQAPGKERELVSTISGGGSTSYADSVKGRFTISRDNAKNSVYLQMNSLKPEDTAVYYCAATGYSLRSGKRRPLRSGYYYWGQGTQVTVSW")
"high polyreactivity"
>>> measured_value("QVQLVESGGGLVQAGGSRRLSCAASGSIFIPYVMGWYRQAPGKERELVAVITSGGDTYYADSVKGRFTISRDNAKNTVYLQMNSLKPEDTAVYYCNATFWYPPWWYEYDYWGQGTQVTVSS")
"low polyreactivity"
>>> measured_value("QVQLVESGGGLVQAGGSLRLSCAASGLTFSRNAMGGYRQAPGKERELVAGISVSGSITFYADSVKGRFTISRDNAKNTVYLQMNSLKPEDTAVYYCAARYRYRYTPSVTGYDYWGQGTQVTVSS")
"high polyreactivity"

// for each sequence below, give its polyreactivity (PSR sort gate)
1. QVQLVESGGGLVQAGGSLRLSCAASGIIFYYYAMGWYRQAPGKERELVASISRSGTDTYYADSVKGRFTISRDTAKNTVYLQMNSLKPEDTAVYYCAARGYYRWAAYADWRFNYWGQGTQVTVSS
2. QVQLVESGGVLVQAGGSLRLSCAASGRTFYLYAMGWSRQAPGKERELVAAISRSGGITYYADSVKGRFTISRDNAKNTVYLQMNSLKPEDTAVYYCAASRAGGYYGKGYSWGQGTQVTVSS
3. QDQLVESVGGLVQAGGSLRLSCAASGTISYAGPMGWYRKAPGKEREFVAGIGVCSNTNYADSVKGRYTIIRDNAKNTVYLQMNSLIPEDTAVYYCAVGGYAPLGRPYWGQGTQVTVSS
4. QVQLVESGGGLVQAGGSLRLSCAASGFTLPANGMGWYRQAPGKERELVAAISFIAGSTYYADSVKGRFTISRDNAKNTVYLQMNSLKPEDTAVYYCATQFPPSTIYYYWGQGTQVTVSS
5. QLQLVESGGGLVQAGGSLRLICAASGLIFFWYTMGWYRQAPGKDRELVAAIDSGGSTYYADSVKGRFTNSRDNAKYTVYLEMISLKPEDTAVYYCAADSFYLYIEYYYWGQGTQVTVSS
6. QVQLVESGGGLLQAGGSLRLSCAASGIIFSDYAMGRYRQAPRKERELVAAITSSGGSTYYADSVKGRFTISRDNAKNTVYLQMNSLKPEDPAVYYCAAQCYDYWYDYDYWGQGTQVTVSS
7. QVQLVESGGGLVQAGGSLSLSCAASGSIFQKYTMGWYRQAPRKERELVAAITRSGGSTYYADSVKGRFTISRDNAKNTVYLQMNSLKAEDSAVYYCNKRYIPWAYDYWGQGTQVTVSS

1. high polyreactivity
2. high polyreactivity
3. low polyreactivity
4. low polyreactivity
5. high polyreactivity
6. high polyreactivity
7. high polyreactivity
